# test.details: physchem
Positions of bridges follow the written chain, without caps; N, C: chain ends. Non-standard residues stand in square brackets, D forms with d. Residues, ends and D or L forms follow the SMILES beside them. Lys(N3) = [N-]=[N+]=NCCCC[C@H](N)C(=O)O; R8 = C=CCCCCCC[C@@](C)(N)C(=O)O; Cba = N[C@@H](CC1CCC1)C(=O)O; S5 = C=CCCC[C@](C)(N)C(=O)O; βAla = NCCC(=O)O
result.type: EPSA (A^2)
Note: unit A^2 is implicit; provide only the numeric part.

In: Can you look up the measured EPSA of CC(=O)N[C@@H](CCCCN=[N+]=[N-])C(=O)NCCC(=O)N[C@@H](CC(C)C)C(=O)N[C@H](C(=O)N[C@@H](CC1CCC1)C(=O)N[C@]1(C)CCCCCCC=CCCC[C@@](C)(C(=O)N[C@@H](CO)C(=O)N[C@@H](C)C(=O)N[C@@H](C)C(N)=O)NC(=O)[C@H](Cc2c[nH]c3ccccc23)NC(=O)[C@H](CCC(N)=O)NC(=O)[C@H](C)NC(=O)[C@H](Cc2ccccc2)NC(=O)[C@H](Cc2ccc(O)cc2)NC(=O)[C@H](CCC(=O)O)NC1=O)[C@@H](C)O [MP-791] (Ac-[Lys(N3)][βAla]LT[Cba][R8]EYFAQW[S5]SAA-NH2; staple 6-13) for me?
Out: 197

* * *

# test.details: Solubility assay (kinetic solubility, PBS pH 7)
# Type: physicochemical
# condition.notes: pH 7, PBS
Positions of bridges follow the written chain, without caps; N, C: chain ends. Non-standard residues stand in square brackets, D forms with d. Residues, ends and D or L forms follow the SMILES beside them. Lys(N3) = [N-]=[N+]=NCCCC[C@H](N)C(=O)O; R8 = C=CCCCCCC[C@@](C)(N)C(=O)O; Cba = N[C@@H](CC1CCC1)C(=O)O; S5 = C=CCCC[C@](C)(N)C(=O)O; βAla = NCCC(=O)O
result.type: Solubility

CC(C)C[C@@H]1NC(=O)[C@H](C)NC(=O)[C@H](Cc2c[nH]c3ccccc23)NC(=O)[C@H](Cc2ccc(O)cc2)NC(=O)[C@H](CCC(=O)O)NC(=O)[C@](C)(NC(=O)[C@H](Cc2ccccc2)NC(=O)[C@H](CO)NC(=O)[C@@H](NC(=O)CCNC(=O)[C@@H](N)CCCCN=[N+]=[N-])[C@@H](C)O)CCCCCCC=CCCC[C@@](C)(C(N)=O)NC(=O)[C@H](CC(C)C)NC1=O [MP-0177]    Poorly Behaved
CC(=O)N[C@@H](CCCCN=[N+]=[N-])C(=O)NCCC(=O)N[C@@H](CC(C)C)C(=O)N[C@@H](CCCNC(=N)N)C(=O)N[C@@H](Cc1ccccc1)C(=O)N[C@]1(C)CCCCCCC=CCCC[C@@](C)(C(=O)N[C@@H](CO)C(=O)N[C@@H](C)C(=O)N[C@@H](C)C(N)=O)NC(=O)[C@H](CC2CCC2)NC(=O)[C@H](CCC(N)=O)NC(=O)[C@H](C)NC(=O)[C@H](Cc2c[nH]c3ccccc23)NC(=O)[C@H](Cc2ccc(O)cc2)NC(=O)[C@H](CCC(=O)O)NC1=O [MP-553] (Ac-[Lys(N3)][βAla]LRF[R8]EYWAQ[Cba][S5]SAA-NH2; staple 6-13)    Poorly Behaved
